Recorded values, source paper PMC4624265.

EXPERIMENTAL TARGET: PSMA (Homo sapiens)
Sequence (Q04609 whole entry): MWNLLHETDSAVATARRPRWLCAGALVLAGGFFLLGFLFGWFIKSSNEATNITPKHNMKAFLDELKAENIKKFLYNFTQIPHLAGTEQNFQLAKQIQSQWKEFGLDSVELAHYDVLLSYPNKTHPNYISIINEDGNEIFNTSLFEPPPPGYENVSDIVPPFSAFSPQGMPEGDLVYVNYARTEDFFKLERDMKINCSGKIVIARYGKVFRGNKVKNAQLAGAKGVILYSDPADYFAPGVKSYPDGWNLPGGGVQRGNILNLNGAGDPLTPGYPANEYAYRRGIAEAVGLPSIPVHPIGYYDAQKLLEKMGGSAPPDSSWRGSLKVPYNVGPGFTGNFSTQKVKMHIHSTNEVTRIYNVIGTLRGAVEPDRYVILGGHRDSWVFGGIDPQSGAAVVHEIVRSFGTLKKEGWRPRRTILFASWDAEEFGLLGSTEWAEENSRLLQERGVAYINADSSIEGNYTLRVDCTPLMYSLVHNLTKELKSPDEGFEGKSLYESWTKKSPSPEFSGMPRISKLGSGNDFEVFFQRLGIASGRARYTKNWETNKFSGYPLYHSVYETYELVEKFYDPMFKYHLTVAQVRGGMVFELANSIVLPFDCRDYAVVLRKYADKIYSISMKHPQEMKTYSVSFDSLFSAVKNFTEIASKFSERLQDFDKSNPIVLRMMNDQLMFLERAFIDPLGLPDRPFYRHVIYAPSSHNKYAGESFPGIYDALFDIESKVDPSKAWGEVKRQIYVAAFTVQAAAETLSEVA
VALUE KIND: pIC50
One number for each entry, as −log10 of the molar value.

Fill in the blank: the reported pIC50 of NCCCCCC(=O)N[C@@H](CCC(=O)N[C@H](CCCOP(=O)(O)NC(CCC(=O)O)C(=O)O)C(=O)O)C(=O)O (stereo partly shown) is ____. 7.72
